Assay: yeast display, Sf9 membrane polyspecificity reagent, FACS + sequencing; frameworks hold sequencing errors
readout-type: polyreactivity (PSR sort gate)

construct-sequence	measured-result
QVQLVESGGGLVQAGGSLRLSCAASGLIFSRYAMGWYRQAPGKERELVAAISTRGGSTYYADSVKGRFTISRDTAKNTVYLQMNSLKPEDTAVYYCNADIYGTFRVGQGYDYWGQGTQVTVSS	high polyreactivity
QVQLVESGGGLVQAGGSLRLSCAASGRTFGGYAMGWYRQAPGKERELVAAISKRSGSTYYADSVKGRFTISRDNAKNTVYLQMNSLKPEDTAVYYCNKVWFQRSVQPVEYDYWGQGTQVTVSS	high polyreactivity

* * *

Experiment: yeast display, Sf9 membrane polyspecificity reagent, FACS + sequencing; frameworks hold sequencing errors
readout-type: polyreactivity (PSR sort gate)

construct-sequence	measured-result
QVQLGESGGGLVQAGGSLRLSCAASGSTFWPYAMGWYRQAPGKERELVATIRWSGGSTSYADSVKGRFTISRDNAKNTVYLQMNSVKPEDTAVFYCAARDFHYYRFKTYGYWGQGTQVTVSS	high polyreactivity
QVQLEESGGGIVQAGGSLRLSCAASGRIFPYYAMGWYRQAPGKERALVAVISYSSGITYADSVKGRFTISRDNAKNTVYLQMNSLKPEDTAVYYCAADKWAFGATQYDYWGKGTQVTVSS	low polyreactivity
QVQLVESGGGLVQAGGSLRLSCAASGSTFDRNVMGWNRQAPGKERELVAAISRVSSTNYADSVKGRFTISRDNAKNTVYLQMHSLKPEDTAVYYCAADRAGSIMNYWGQGSQVTVSS	low polyreactivity
QVHLVESGGGLVQAGRSLRLSCAASGSTFSYNAMGWSRQAPGKERELVAAISNGGSTNYADSVKGRFTISRDNAKYTVFLQMNSLKPEDTAVYYCAAHTYSELSWLVVYPYDYWGQGTQVTVSS	low polyreactivity
QVQLVESGGGLVQAGGSLRLSCAASGLIFGFYTMGWYRQAPGKERELVAVISSSGGSTYYADSVKGRFTISRDNAKNTVYLQMNSLKPEDTAVYYCAARAYPVRYRRRDYWGQGTQVTVSS	high polyreactivity

* * *

Test: yeast display, Sf9 membrane polyspecificity reagent, FACS + sequencing; frameworks hold sequencing errors

construct-sequence	polyreactivity (PSR sort gate)
QVQLVESGGGLVQAGGSLRLSCAASGLIFVGYVMGWYRQAPGKERELVAAITSSSGSTYYADSVKGRFTISRDNAKNTVYLQKNSLKPEDTAVYYCAAEWGYYWYYDSEYWGQGTQVTVSS	high polyreactivity
QVQRVESGGGLVQAGGSLRLSCAASGYTFEAYAMGWYRQAPGKERELVAAITINGGSTYYADSVKGRFTISRDNAKNTVYLQMNSLKPEDTAVYYCAADLFHRAGWYFAYGHWGLGTQVTVSS	low polyreactivity
QVQLVESGGGLVQAGGSLRLSCAASGYTFYLYAMGWYRQAPGKERELVAAISTNGGRTYYADSVKGRFTISRDNAKNTVYLQLNSLKPEDTAVYYCAVRSRGTAPQYYYWGQGTQVTVSS	high polyreactivity
QVQLVESGGGLVQAGGSLRLSCAASGRILRYYTMGWYRQAPGKERELVAAITWSGGSTNYADSVKGRFTISRDYAKNTVYLQMNSLKPEDSEVYYCNADRRKYYFTYGSWGQGTQVTVSS	high polyreactivity
QVQLVESGGGLVQAGGSLRRSCAAYGRIFTMNAMGWYRQAPGKESELVAVISRSGCSTYYADSVKGRFTISRDNAKNTVYLQMNSLNPEDTAVYYCNAVPIYYAWRRNKPFDYWGLGTQVTVSS	low polyreactivity
QVQLVESGGGLVQAGGSLRLSCAASGRIFIHNAMGWYRQAPGKERELVAAISSRGSRTSYADSVKGRFTISRDNAKNTVYLQMNSLKPEDTSVYYCNAAPIAKYDYWGQGTQVTVSS	high polyreactivity
QVQLVETGGGLVQAGGSLRLSCAASGFIFSAYAMGWYRQAPGKEREFVAAISKRGGSTYYADSVKGRFTISRENAKNTVYLQMNTLKPDDTAVYYCAAPYSRYLVGYGYWGQGTQVTVSS	high polyreactivity
QVQLVESGGGLVQAGGSLSLSCAASGSTFAFYAMGCYRQAPGKERDLVAASTRSAGSTYYADSVKGRFTISRDNATTTVYLPMNSLKREDTAVYYCAKYVSYSRTLYDYWGQGTQVTVSS	low polyreactivity
QVQLVESGGGLVQAGGSLRLSCAASGNTFGLYAMGWYRQAPGKERELVATITWSVSTYADSVKGRFTISRDNAKNTVYLQMNSLKPEDTAVYYCAATTGPWYWRYDYWGQGTQVTVSS	high polyreactivity
QVQLVESGGGLVQAGGSLRLSCAASGSTLSQYAMGLYRQAPGKERELVAAITKSGVRTYYPDSVKGRFTISRDNAKNTVYLQMNSLKREDTAVYYCAKATTKYIAPYDYWGQGTQVTVSS	high polyreactivity
QVQLVESGGGLVQAGGSLRLSCAASGRIFHRNAMGWYRQAPGKERELVARITRSGTSTYYADSVKGRFTISRDNAKNTVYLQMNSLKQEDTAVYYCAADNASPSLGEYNYWGQGTQVTVSS	low polyreactivity
